# assay-remarks: Phase I plasma pharmacokinetics
# Format: in vivo, human
# condition-label: human, plasma, iv, 1.375 mg/kg, Cohort 3: 1.375 mg/kg; N = 3; 90-min IV infusion; Cycle 1 Day 10; plasma LC-MS; read-out: Time to peak plasma concentration, Mean (SD)
Ends that are not written are not given here.
quantity-name: Tmax (min)
Report only the number, with the unit min understood.

What does the record list as Tmax for KEFLHPSKVDLPR [SOR-C13] ?
35

###

# assay-remarks: Phase I plasma pharmacokinetics
# Assay type: in vivo, human
# condition-label: human, plasma, iv, 4.13 mg/kg, Cohort 5: 4.13 mg/kg; N = 3; 90-min IV infusion; Cycle 1 Day 8; plasma LC-MS; read-out: AUCtau, Median
Ends that are not written are not given here.
quantity-name: AUC(0-t) (ng·h/mL)
// return numeric value only (unit: ng·h/mL, not printed)

Any idea what AUC(0-t) was measured for KEFLHPSKVDLPR [SOR-C13] ?
245

###

# assay-remarks: Phase I plasma pharmacokinetics
# Type: in vivo, human
# condition-label: human, plasma, iv, 2.75 mg/kg, Cohort 4: 2.75 mg/kg; N = 6; 90-min IV infusion; Cycle 1 Day 1; plasma LC-MS; read-out: Peak plasma concentration, Mean (SD)
Ends that are not written are not given here.
quantity-name: Cmax
A complete answer gives the number and then names the unit.

Could you share which Cmax value was measured for KEFLHPSKVDLPR [SOR-C13] ?
524 ng/mL

###

# assay-remarks: Phase I plasma pharmacokinetics
# Type: in vivo, human
# condition-label: human, plasma, iv, 1.375 mg/kg, Cohort 3: 1.375 mg/kg; N = 3; 90-min IV infusion; Cycle 1 Day 3; plasma LC-MS; read-out: Time to peak plasma concentration, Median
Ends that are not written are not given here.
quantity-name: Tmax (min)
Answer format: numeric, min implied, no suffix.

Item under review: KEFLHPSKVDLPR [SOR-C13] . Reported Tmax?
15

###

# assay-remarks: Phase I plasma pharmacokinetics
# Assay type: in vivo, human
# condition-label: human, plasma, iv, 6.2 mg/kg, Cohort 6: 6.2 mg/kg; N = 6; 90-min IV infusion; Cycle 1 Day 1; plasma LC-MS; read-out: Peak plasma concentration, Median
Ends that are not written are not given here.
quantity-name: Cmax (ng/mL)
Please respond with the number in ng/mL and leave the unit unwritten.

Field request: Cmax | item: KEFLHPSKVDLPR [SOR-C13]
682

###

# assay-remarks: Phase I plasma pharmacokinetics
# Type: in vivo, human
# condition-label: human, plasma, iv, 4.13 mg/kg, Cohort 5: 4.13 mg/kg; N = 3; 90-min IV infusion; Cycle 1 Day 3; plasma LC-MS; read-out: Peak plasma concentration, Median
Ends that are not written are not given here.
quantity-name: Cmax (ng/mL)
Give the quantity in ng/mL, number only.

Item under review: KEFLHPSKVDLPR [SOR-C13] . Reported Cmax?
403

###

# assay-remarks: Phase I plasma pharmacokinetics
# Type: in vivo, human
# condition-label: human, plasma, iv, 1.375 mg/kg, Cohort 3: 1.375 mg/kg; N = 3; 90-min IV infusion; Cycle 1 Day 1; plasma LC-MS; read-out: AUCtau, Median
Ends that are not written are not given here.
quantity-name: AUC(0-t) (ng·h/mL)
Record the value in ng·h/mL, omitting the unit from your answer.

Could you tell me which AUC(0-t) is on file for KEFLHPSKVDLPR [SOR-C13] ?
263

###

# assay-remarks: Phase I plasma pharmacokinetics
# Assay type: in vivo, human
# condition-label: human, plasma, iv, 4.13 mg/kg, Cohort 5: 4.13 mg/kg; N = 3; 90-min IV infusion; Cycle 1 Day 10; plasma LC-MS; read-out: Peak plasma concentration, Median
Ends that are not written are not given here.
quantity-name: Cmax

Query (sequence): KEFLHPSKVDLPR [SOR-C13] ; field requested: Cmax
295 ng/mL

###

# assay-remarks: Phase I plasma pharmacokinetics
# Assay type: in vivo, human
# condition-label: human, plasma, iv, 1.375 mg/kg, Cohort 3: 1.375 mg/kg; N = 3; 90-min IV infusion; Cycle 1 Day 3; plasma LC-MS; read-out: AUCtau, Mean (SD)
Ends that are not written are not given here.
quantity-name: AUC(0-t) (ng·h/mL)
Provide only the numeric value, understood in ng·h/mL.

Item under review: KEFLHPSKVDLPR [SOR-C13] . Reported AUC(0-t)?
148

Data provenance is paper PMC5418314.
